# Tested System: Potassium-transporting ATPase (Rattus norvegicus) (UniProt P09626+P18598)
# Assay Explanation: Inhibition of pentagastrin-stimulated gastric acid secretion at a single dose of 10 umol/kg.
# Assay type: functional
# Stated Conditions: Stomach
Label true (1) when inhibition >= 50%; otherwise false (0).

| Test Smiles | Group |
| --- | --- |
| CCCC(=O)c1cnc2c(CCCO)cccc2c1Nc1ccccc1C | true (1) |
| CCCC(=O)c1cnc2c(O)cccc2c1Nc1ccc(F)cc1C | false (0) |
| CCCC(=O)c1cnc2c(OCCCN3CCCCC3)cccc2c1Nc1ccccc1C | false (0) |
| CCCC(=O)c1cnc2c(OCCCN3CCOCC3)cccc2c1Nc1ccccc1C | false (0) |
| CCCC(=O)c1cnc2c(OCCCC(N)=O)cccc2c1Nc1c(C)cccc1C | true (1) |

###

Quick reference: inhibition of the listed items.
# Tested System: Potassium-transporting ATPase (Rattus norvegicus) (UniProt P09626+P18598)
# Assay Explanation: Inhibition of pentagastrin-stimulated gastric acid secretion at a single dose of 10 umol/kg.
# Format: functional
# Stated Conditions: Stomach

| Compound | Tested System | inhibition / % |
| --- | --- | --- |
| CCCC(=O)c1cnc2c(C=O)cccc2c1Nc1ccccc1C | Potassium-transporting ATPase (Rattus norvegicus) (UniProt P09626+P18598) | 64 |
| CCCC(=O)c1cnc2c(OC)cccc2c1Nc1ccc(N2CCCC2)cc1C | Potassium-transporting ATPase (Rattus norvegicus) (UniProt P09626+P18598) | 0 |
| CCCC(=O)c1cnc2c(CO)cccc2c1Nc1ccc(F)cc1C | Potassium-transporting ATPase (Rattus norvegicus) (UniProt P09626+P18598) | 55 |
| CCC(=O)c1cnc2c(CO)cccc2c1Nc1ccccc1C | Potassium-transporting ATPase (Rattus norvegicus) (UniProt P09626+P18598) | 74 |
| CCCC(=O)c1cnc2c(N)cccc2c1Nc1ccccc1C | Potassium-transporting ATPase (Rattus norvegicus) (UniProt P09626+P18598) | 59 |
| CCCC(=O)c1cnc2c(OCCCC(=O)OCC)cccc2c1Nc1ccccc1C | Potassium-transporting ATPase (Rattus norvegicus) (UniProt P09626+P18598) | 52 |
| CCC(=O)c1cnc2c(OCCCNc3nccs3)cccc2c1Nc1c(C)cccc1C | Potassium-transporting ATPase (Rattus norvegicus) (UniProt P09626+P18598) | 48 |
| CCCC(=O)c1cnc2c(C3COCO3)cccc2c1Nc1ccccc1C (stereo unspecified) | Potassium-transporting ATPase (Rattus norvegicus) (UniProt P09626+P18598) | 31 |
| CCCC(=O)c1cnc2c(OC)cccc2c1Nc1ccc(OC)cc1OC | Potassium-transporting ATPase (Rattus norvegicus) (UniProt P09626+P18598) | 53 |
| CCCC(=O)c1cnc2c(N)cccc2c1Nc1c(C)cccc1C | Potassium-transporting ATPase (Rattus norvegicus) (UniProt P09626+P18598) | 57 |
| CCCC(=O)c1cnc2c(CC(=O)O)cccc2c1Nc1ccccc1C | Potassium-transporting ATPase (Rattus norvegicus) (UniProt P09626+P18598) | 24 |

###

# Tested System: Potassium-transporting ATPase (Rattus norvegicus) (UniProt P09626+P18598)
# Assay Explanation: Inhibition of pentagastrin-stimulated gastric acid secretion at a single dose of 10 umol/kg.
# Type: functional
# Stated Conditions: Stomach
Quick reference: inhibition of the listed items.

| Test Smiles | inhibition [%] |
| --- | --- |
| CCCC(=O)c1cnc2c(OCCOCCO)cccc2c1Nc1ccc(F)cc1C | 49 |
| CCCC(=O)c1cnc2c(OCCCc3nc4ccccc4[nH]3)cccc2c1Nc1c(C)cccc1C | 50 |
| CCCC(=O)c1cnc2ccc(O)cc2c1Nc1ccc(O)cc1C | 51 |

Value source: ChEMBL document CHEMBL1128471
